# Test system: Rattus norvegicus
# EXPERIMENTAL_DETAILS: Antihypertensive activity in spontaneously hypertensive rat assessed as decrease in blood pressure at 5 mg/kg, po after 3 hrs by tail cuff method
# Assay type: functional
# Set-up: scale not given: the % may be the effect or the level left
Reported Activity values for the following compounds.
Expressed in %, but write only the number.

Reference set (3 entries):
# SMILES_REPR, VALUE_TYPE, TEST_RESULT
data = [
    ("Cc1ccc(-c2nn3c(=O)c4ccccc4nc3n2Cc2ccccc2)cc1", "Activity", 9.1),
    ("O=c1c2ccccc2nc2n(Cc3ccccc3)cnn12", "Activity", 17.3),
    ("CCOc1ccc(-c2nn3c(=O)c4ccccc4nc3n2Cc2ccccc2)cc1", "Activity", 9.52),
]

get_value(item= `Cc1nn2c(=O)c3ccccc3nc2n1Cc1ccccc1` , readout=Activity) returns 33.5

get_value(item= `COc1ccc(-c2nn3c(=O)c4ccccc4nc3n2Cc2ccccc2)cc1` , readout=Activity) returns 9.6

###

# Tested on: Rattus norvegicus
# EXPERIMENTAL_DETAILS: Antihypertensive activity in spontaneously hypertensive rat assessed as decrease in blood pressure at 5 mg/kg, po after 2 hrs by tail cuff method
# Format: functional
# Set-up: scale not given: the % may be the effect or the level left
Recorded measurements of Activity, one per entry

Answered cases to consult:
# SMILES_REPR, VALUE_TYPE, TEST_RESULT
measured = [
    ("O=c1c2ccccc2nc2n(Cc3ccccc3)c(CCl)nn12", "Activity", "11.9%"),
    ("Cc1nn2c(=O)c3ccccc3nc2n1Cc1ccccc1", "Activity", "31.5%"),
    ("O=c1c2ccccc2nc2n(Cc3ccccc3)c(CN3CCOCC3)nn12", "Activity", "10%"),
]

Input `O=c1c2ccccc2nc2n(Cc3ccccc3)c(-c3ccccc3)nn12` . Output Activity: 7.1%

###

# Test system: Rattus norvegicus
# EXPERIMENTAL_DETAILS: Antihypertensive activity in spontaneously hypertensive rat assessed as decrease in blood pressure at 5 mg/kg, po after 3 hrs by tail cuff method
# Assay type: functional
# Set-up: scale not given: the % may be the effect or the level left
Is Activity at least 20%? Then 1. If not, 0.

# COMPOUND, DISCRETE_LABEL
records = [
    ("CCCc1nn2c(=O)c3ccccc3nc2n1Cc1ccccc1", 0),
]

Reported Activity reaches at least 20% for `O=c1c2ccccc2nc2n(Cc3ccccc3)c(CN3CCCCC3)nn12` ?
0

Test whether the compound `O=c1c2ccccc2nc2n(Cc3ccccc3)c(CCl)nn12` records Activity of 20% or higher.
0

Answer whether Activity of COc1cc2nc(N3CCN(C(=O)c4ccco4)CC3)nc(N)c2cc1OC [PRAZOSIN] is greater than or equal to 20%.
0

Quick check, Activity >= 20%? `O=c1c2ccccc2nc2n(Cc3ccccc3)c(-c3ccccc3)nn12`
0

Threshold query (Activity >= 20%) on `O=c1c2ccccc2nc2n(Cc3ccccc3)c(CN3CCOCC3)nn12`
1

###

# Tested on: Rattus norvegicus
# EXPERIMENTAL_DETAILS: Antihypertensive activity in spontaneously hypertensive rat assessed as decrease in blood pressure at 5 mg/kg, po after 2 hrs by tail cuff method
# Assay type: functional
# Design: scale not given: the % may be the effect or the level left
# Activity listing for each entry below
# value in %; strip the unit string

Here's what some known entries look like.
# SMILES_REPR, Activity / %
records = [
    ("CCOc1ccc(-c2nn3c(=O)c4ccccc4nc3n2Cc2ccccc2)cc1", 7.6),
    ("COc1cc2nc(N3CCN(C(=O)c4ccco4)CC3)nc(N)c2cc1OC", 24.6),
    ("Cc1ccc(-c2nn3c(=O)c4ccccc4nc3n2Cc2ccccc2)cc1", 5.6),
    ("O=c1c2ccccc2nc2n(Cc3ccccc3)cnn12", 7.3),
    ("COc1ccc(-c2nn3c(=O)c4ccccc4nc3n2Cc2ccccc2)cc1", 9.7),
    ("CCCc1nn2c(=O)c3ccccc3nc2n1Cc1ccccc1", 20.5),
]

# context switch: different compound, same Activity
Summary for this compound, `O=c1c2ccccc2nc2n(Cc3ccccc3)c(CN3CCCCC3)nn12` : Activity is 5.1
